For each entry below, report its growth value.
- System: MALME-3M melanoma
- test: NCI-60 one-dose screen, 48 h (100 = growth as untreated, 0 = no growth, -100 = all killed)
- settings: 10 µM unless noted
This is part of a sample that, as a whole, favours compounds with a hit. Of some 83,000 tested, about 20% had one in any assay. The source made the active and inactive calls. Rule for the calls: active = growth percent below 10; inactive = the rest.

Supply recorded growth for "COC(=O)c1cc(C(=O)C(Br)Br)n2c1ccc1c3ccccc3ccc12" here.
65.6% (inactive)

Supply recorded growth for "Cc1ccc(C(=O)Nc2cc(-n3ccnc3)cc(C(F)(F)F)c2)cc1-n1cc(-c2cnc3cccnn23)nn1" here.
-7.64% (active)

Supply recorded growth for "O=C(Nc1ccc(Cl)c(C(F)(F)F)c1)N1CCN(c2cc(-c3cn(-c4ccccc4)nc3-c3cccc(O)c3)ccn2)CC1" here.
-31.4% (active)

Supply recorded growth for COc1ccc2c(c1)C(Sc1ccc(Cl)cc1)c1c(nc(N)c(C#N)c1N)O2 (stereo not drawn) here.
82.2% (inactive)

Supply recorded growth for "COc1ccc(Nc2nnc(-c3c[nH]c4ccccc34)o2)cc1" here.
79.5% (inactive)

Supply recorded growth for "CN(CCSSCCN1CCOCC1)C(=O)Oc1cc2c(c3ccccc13)[C@H](CCl)CN2C(=O)c1cc2cc(OCCCN3CCC3)ccc2[nH]1" here.
-79.5% (active)

Supply recorded growth for CN1C(=O)C2(C(C#N)=C(c3ccc(Cl)cc3)Nc3c2c(-c2ccccc2)nn3-c2ccccc2)c2ccccc21 (stereo not drawn) here.
78.9% (inactive)

Supply recorded growth for Oc1ccc(F)c(Nc2nc(SCCN3CCOCC3)nc3c2cnn3CC(Cl)c2ccc(Br)cc2)c1 (stereo not drawn) here.
1.03% (active)

* * *

- System: M14 melanoma
- test: NCI-60 one-dose screen, 48 h
- settings: 10 µM unless noted
This is part of a sample that, as a whole, favours compounds with a hit. Of some 83,000 tested, about 20% had one in any assay. Activity calls are given as the source filed them. The calls were made as follows: active = growth percent below 10; inactive = the rest.
Answer with one of the outcomes TRUE = active, FALSE = inactive

Call for entry "C/C(=N/O)c1ccc(NC(=O)CSc2nnc(-c3ccc(-c4nc5ccc(Cl)cc5[nH]4)cc3)o2)cc1" :
TRUE

Call for entry COc1ccc(C2=Nc3c(N)nc(N)nc3NC(c3ccc(Oc4nc(Nc5ccc(F)cc5)nc(N(C)C)n4)c(OC)c3)C2)cc1 (centres undefined) :
FALSE

Call for entry "N/C(=N\c1nc2ccc([N+](=O)[O-])cc2s1)NC(=O)Nc1ccccc1Cl" :
FALSE

Call for entry "COc1ccc2[nH]c(=O)cc(-n3ncc(C(=O)/C=C/c4cc(OC)c(OC)c(OC)c4)c3C)c2c1" :
TRUE

Call for entry "S=C(Nc1ccccc1)Nc1ccc(OCc2nc3ccc(Cl)cc3[nH]2)cc1" :
FALSE

Call for entry "O=C1Nc2cc(-c3ccc(NS(=O)(=O)c4ccc(F)c(Cl)c4)cc3)ccc2/C1=C/c1ccc[nH]1" :
FALSE

Call for entry "Cc1cccc(C)c1Nc1nnc(-c2c[nH]c3ccccc23)o1" :
FALSE

Call for entry "CCCCCCCCc1ccc(C(=O)Nc2cccc(O)c2)cc1" :
FALSE

Call for entry "Cc1[nH]nc2ccc3nc(-c4cnn(CCO)c4)c4c(c3c12)CCCC4" :
FALSE

Call for entry "C#CCN(C)CCCOc1ccc(N(CC)C(=O)c2cc(C(C)C)c(O)cc2O)cc1Cl" :
TRUE

Call for entry "COc1ccc(-c2cc(C(=O)N=Nc3c(O)[nH]c4ccc(Cl)cc34)c3ccccc3n2)cc1" :
FALSE

Call for entry "COc1ccccc1NC(=O)c1ccc(NC(=O)CCl)s1" :
TRUE

Call for entry "CN(C)c1ccc(/C=C/c2n(Cc3ccc4ccccc4c3)c3ccccc3[n+]2Cc2ccc3ccccc3c2)cc1" :
TRUE

Call for entry CCOC(=O)/C(F)=C/C1CC1CCc1ccc(OCC)cc1 (centres undefined) :
FALSE

Call for entry "Cc1ccc(S(=O)(=O)Nc2ccc(-c3ccc4c(c3)NC(=O)/C4=C\c3ccc[nH]3)cc2)cc1" :
FALSE

Call for entry "COc1ccc(Nc2nnc(-c3c[nH]c4ccccc34)o2)cc1" :
FALSE

Call for entry "COc1ccc(-c2nc3ccccc3n2CC(=O)N=Nc2c(O)[nH]c3ccc(OC)cc23)cc1" :
FALSE

Call for entry "Cc1ccc(C(=O)Nc2cc(-c3ccccc3)cc(C(F)(F)F)c2)cc1C#Cc1cnc2cccnn12" :
FALSE

Call for entry "O=C(CSc1nc2sc3c(c2c(=O)n1-c1ccc(Cl)cc1)CCCC3)NNC(=O)c1ccc(F)cc1" :
FALSE

* * *

- Test system: HCT-15 colon
- test: NCI-60 one-dose screen, 48 h (100 = growth as untreated, 0 = no growth, -100 = all killed)
- settings: 10 µM unless noted
This is part of a sample that, as a whole, favours compounds with a hit. Of some 83,000 tested, about 20% had one in any assay.
For each entry below, report its growth value.
Note: unit % is implicit; provide only the numeric part.

Specify the recorded growth for "Cn1cc(-c2cc(N)n3nc(-c4c[nH]c5ccccc45)cc3n2)c2cc(Cl)ccc21" , system: HCT-15 colon.
-77.3

Specify the recorded growth for ClC(Cn1ncc2c(Nc3cccc(Br)c3)nc(SCCN3CCOCC3)nc21)c1ccc(Br)cc1 (stereo not given) , system: HCT-15 colon.
-76.9

Specify the recorded growth for "Cn1ncc2c(N)nc(Oc3ccccc3-c3ccccc3)nc21" , system: HCT-15 colon.
10.7

Specify the recorded growth for O=C(c1ccc(Cl)cc1)C1[C@H](c2ccccc2Cl)[C@@H](c2ccccc2)NC12C(=O)Nc1ccc(Br)cc12 (stereo not given in full) , system: HCT-15 colon.
-83.8

Specify the recorded growth for CCN1C(=O)N(CC)C2NNC(Sc3c(C(=O)O)c4ccccc4n(CC(C)C)c3=O)=NC21 (stereo not given) , system: HCT-15 colon.
7.04

Specify the recorded growth for "Fc1ccc(N2CC(Cn3c(C(F)(F)F)cc4c(Cl)ncnc43)C2)c(F)c1" , system: HCT-15 colon.
-76.5

Specify the recorded growth for CC(C)(C)C(=O)C1CC(C#N)=C2C=Cc3c(ccc4ccccc34)N21 (stereo not given) , system: HCT-15 colon.
88.3

Specify the recorded growth for "Cc1ccc(-c2cc(C(=O)N=Nc3c(O)[nH]c4ccc(F)cc34)c3ccccc3n2)cc1" , system: HCT-15 colon.
7.85

Specify the recorded growth for "CC1=C(C)C(=O)C(N2CCSCC2)=CC1=O" , system: HCT-15 colon.
104

Specify the recorded growth for "CN(C)C(=O)c1cc(-c2ccc3ncnc(N4CCc5cc(F)c(Cl)cc54)c3c2)cnc1N" , system: HCT-15 colon.
-70.8

* * *

- Tested on: PC-3 prostate
- test: NCI-60 one-dose screen, 48 h (100 = growth as untreated, 0 = no growth, -100 = all killed)
- settings: 10 µM unless noted
Compounds without any hit were thinned out: in the full panel of roughly 83,000, 20% have a hit.
observed_property: growth (%)
Note: unit % is implicit; provide only the numeric part.

Supply recorded growth for "Cn1cc(Nc2ncnc(-c3ccc(N4CCCC4)c(C#N)c3)n2)cn1" here.
78.8

Supply recorded growth for "Clc1ccc(-c2nc3ccc(-c4nnc(SCc5ccccc5)o4)cc3[nH]2)cc1" here.
25.1

Supply recorded growth for "COc1ccc(-n2c(NC(=O)N3CCN(C)CC3)c(C#N)c3ccccc32)cc1" here.
58.2

Supply recorded growth for "CC1=C(C)C(=O)C(N2CCSCC2)=CC1=O" here.
89.7

Supply recorded growth for "Cc1ccccc1NC(=O)c1cccc(NC(=O)CCl)c1" here.
55.8

Supply recorded growth for "O=C(N/N=C/c1ccc(B(O)O)s1)c1[nH]c2ccc(Br)cc2c1-c1ccccc1" here.
-9.11

* * *

- Tested on: NCI-H226 lung
- test: NCI-60 one-dose screen, 48 h (100 = growth as untreated, 0 = no growth, -100 = all killed)
- settings: 10 µM unless noted
- Experimental: Growth inhibition of the NCI-H226 human Non-Small Cell Lung tumor cell line is measured as a screen for anti-cancer activity. Cells are grown in 96 well plates and exposed to the test compound for 48 hours. Compounds are tested at a single concentration, which is 10^-5 M for most compounds. The reported endpoint is percent growth (GI% or GIPRCNT), where numbers from 0 - 100% represent growth inhibition, and numbers from -100% - 0 represent cell death. […]
This is part of a sample that, as a whole, favours compounds with a hit. Of some 83,000 tested, about 20% had one in any assay.
Please use yes whenever growth is not below 70%, and no whenever it is.

Item "CCN1CCN(Cc2ccc(C(=O)Nc3cccc(Nc4ccc5c(OC)cccc5n4)c3)cc2C(F)(F)F)CC1" with growth of 70% or above?
no

Item "Cc1ccc(N=Nc2c(N)nn3c(-c4cc5cc(Br)ccc5oc4=O)ccnc23)cc1" with growth of 70% or above?
no

Item "COc1sc(/C=N/NC(=O)c2[nH]c3ccc(Br)cc3c2-c2ccccc2)cc1Cl" with growth of 70% or above?
no

Item "CC(=O)c1c2c(c3ccc4c5ccccc5ccc4n13)C(=O)c1ccccc1C2=O" with growth of 70% or above?
no

Item "COc1ccc(N=Nc2c(N)nn3c(-c4cc5cc(Br)ccc5oc4=O)ccnc23)cc1" with growth of 70% or above?
no

Item "Cc1nc2sccn2c1-c1nnc(SCc2ccccc2)o1" with growth of 70% or above?
yes

Item "Cc1ccc(C(=O)Nc2cc(-c3ccncc3)cc(C(F)(F)F)c2)cc1C#Cc1cnc2cccnn12" with growth of 70% or above?
no

Item "COc1ccc(-c2cc(C(=O)OCc3ccc(Br)cc3)nn2-c2ccc(S(C)(=O)=O)cc2)cc1OC" with growth of 70% or above?
yes

Item "Nc1nn2c(-c3cc4cc(Br)ccc4oc3=O)ccnc2c1N=Nc1ccc(S(N)(=O)=O)cc1" with growth of 70% or above?
yes

Item "COc1ccc(-c2nc3ccccc3n2CC(=O)N=Nc2c(O)[nH]c3ccc(Br)cc23)cc1" with growth of 70% or above?
yes

Item "O=C(Cn1c(/C=C/c2ccc([N+](=O)[O-])cc2)nc2ccccc2c1=O)Nc1ccccc1" with growth of 70% or above?
no

Item N#CC1=C(c2ccco2)Nc2c(c(-c3ccccc3)nn2-c2ccccc2)C12C(=O)Nc1ccc(Br)cc12 (centres undefined) with growth of 70% or above?
no

Item "Cc1nc(N)ncc1-c1ccc2ncnc(N3CCc4cc(F)c(Cl)cc43)c2c1" with growth of 70% or above?
yes

Item "COc1ccc(-c2nc3ccc(-c4nnc(SCC(=O)Nc5ccc(/C(C)=N\O)cc5)o4)cc3[nH]2)cc1" with growth of 70% or above?
yes

Item "O=C(CSc1nc2sc3c(c2c(=O)n1-c1ccc(Cl)cc1)CCCC3)NNC(=O)c1ccc(F)cc1" with growth of 70% or above?
no

Item "COc1ccc2[nH]c(O)c(N=Nc3nc(-c4ccc(C#N)cc4)cs3)c2c1" with growth of 70% or above?
yes

Item "COc1ccc2[nH]cc(-c3cc(N)n4nc(-c5c[nH]c6ccccc56)cc4n3)c2c1" with growth of 70% or above?
yes

Item O=S(=O)(c1nc(-c2ccc(Br)cc2)oc1-c1ccc(Cl)cc1)N1CCCC(O)C1 (centres undefined) with growth of 70% or above?
no
